Target: human factor-Xa (Homo sapiens)
Construct: purchased Cosmobio Co., Ltd
Experiment: Determination of anti-factor Xa activity (S-2222 coloring substrate, absorbance at 405 nm)
Assay type: biochemical
Settings: human factor-Xa 0.25 unit/ml, S-2222 0.4 mM, Tris buffer pH 8.4, room temperature, 5 minutes; read-out: Inhibitory Action against Factor Xa Activity (IC50 (nM))
Structures can show the parent of a compound that is named as a salt.
quantity_name: IC50 (nM)
Respond numerically; units are nM and should not be typed.

// CCOC(=O)CS(=O)(=O)N(C/C=C/c1cccc(C(=N)N)c1)c1ccc(OC2CCN(C3=NCCC3)CC2)c(C(F)(F)F)c1 [Example 77, dihydrochloride] : IC50 value = 12

// CCN=CN1CCC(Oc2ccc(N(CC=Cc3cccc(C(=N)N)c3)S(=O)(=O)CC(=O)OCC)cc2Cl)CC1 [Example 86, dihydrochloride] : IC50 value = 15

// N=C(N)c1cccc(/C=C/CN(c2ccc(OC3CCN(C4=NCCC4)CC3)c(Cl)c2)S(=O)(=O)CC(=O)O)c1 [Example 54, dihydrochloride] : IC50 value = 7

// CC/N=C/N1CCC(Oc2ccc(N(C/C=C/c3cccc(C(=N)N)c3)S(=O)(=O)CC(=O)O)cc2Cl)CC1 [Example 87, dihydrochloride] : IC50 value = 13

// N=C(N)c1cccc(/C=C/CN(c2ccc(OC3CCN(C4=NCCC4)CC3)c(C(N)=O)c2)S(=O)(=O)CC(=O)O)c1 [Example 72, dihydrochloride] : IC50 value = 9.8

// CCOC(=O)CS(=O)(=O)N(C/C=C/c1cccc(C(=N)N)c1)c1ccc(OC2CCN(C=N)CC2)c(Cl)c1 [Example 47, dihydrochloride] : IC50 value = 6.1

// CCOC(=O)CS(=O)(=O)N(C/C=C/c1cccc(C(=N)N)c1)c1ccc(OC2CCN(C3=NCCCC3)CC2)c(C)c1 [Example 67, dihydrochloride] : IC50 value = 15

// CCOC(=O)CS(=O)(=O)N(C/C=C/c1cccc(C(=N)N)c1)c1ccc(OC2CCN(C(=N)c3ccccc3)CC2)c(Cl)c1 [Example 51, dihydrochloride] : IC50 value = 6.9

// N=C(N)c1cccc(/C=C/CN(c2ccc(OC3CCN(CCc4ccccc4)CC3)c(Cl)c2)S(=O)(=O)CC(=O)O)c1 [Example 12, dihydrochloride] : IC50 value = 13

// N=C(N)c1cccc(/C=C/CN(c2ccc(OC3CCN(C4CCCC4)CC3)c(Cl)c2)S(=O)(=O)CC(=O)O)c1 [Example 38, dihydrochloride] : IC50 value = 12

// CCN1CCC(Oc2ccc(N(C/C=C/c3cccc(C(=N)N)c3)S(=O)(=O)CC(=O)O)cc2Cl)CC1 [Example 4, dihydrochloride] : IC50 value = 10

// N=CN1CCC(Oc2ccc(N(C/C=C/c3cccc(C(=N)N)c3)S(=O)(=O)CC(=O)O)cc2Cl)CC1 [Example 48, dihydrochloride] : IC50 value = 5.8

* * *

Molecular target: human factor-Xa (Homo sapiens, UniProt P00742)
Construct: purchased Cosmobio Co., Ltd
Sequence (P00742 235-488 limits assumed): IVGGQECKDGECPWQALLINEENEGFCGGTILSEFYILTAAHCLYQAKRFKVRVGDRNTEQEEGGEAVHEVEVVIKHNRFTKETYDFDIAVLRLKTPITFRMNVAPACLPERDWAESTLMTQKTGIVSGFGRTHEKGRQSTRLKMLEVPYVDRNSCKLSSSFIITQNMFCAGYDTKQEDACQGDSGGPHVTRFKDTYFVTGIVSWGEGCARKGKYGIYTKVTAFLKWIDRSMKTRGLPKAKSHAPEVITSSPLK
Sequence (P00742 41-179 partner limits assumed): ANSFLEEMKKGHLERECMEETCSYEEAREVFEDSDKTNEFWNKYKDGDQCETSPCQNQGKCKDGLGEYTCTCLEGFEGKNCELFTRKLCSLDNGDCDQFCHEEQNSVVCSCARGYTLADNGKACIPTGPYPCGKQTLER
Experiment: Determination of anti-factor Xa activity (S-2222 coloring substrate, absorbance at 405 nm)
Type: biochemical
Settings: human factor-Xa 0.25 unit/ml, S-2222 0.4 mM, Tris buffer pH 8.4, room temperature, 5 minutes; read-out: Inhibitory Action against Factor Xa Activity (IC50 (nM))
Structures can show the parent of a compound that is named as a salt.
Please respond with reported IC50 for every item in the list.
Respond numerically; units are nM and should not be typed.

// CCOC(=O)CS(=O)(=O)N(C/C=C/c1cccc(C(=N)N)c1)c1ccc(OC2CCN(C)CC2)c(C(F)(F)F)c1 [Example 45, dihydrochloride] : IC50 value = 7.9

// CCOC(=O)CS(=O)(=O)N(C/C=C/c1cccc(C(=N)N)c1)c1ccc(OC2CCN(C3=NCCCC3)CC2)c(C(F)(F)F)c1 [Example 79, dihydrochloride] : IC50 value = 15

// Cc1cc(N(C/C=C/c2cccc(C(=N)N)c2)S(=O)(=O)CC(=O)O)ccc1OC1CCN(C2=NCCCC2)CC1 [Example 68, dihydrochloride] : IC50 value = 15

// CCOC(=O)CS(=O)(=O)N(C/C=C/c1cccc(C(=N)N)c1)c1ccc(OC2CCN(C3=NCCSC3)CC2)c(Cl)c1 [Example 83, dihydrochloride] : IC50 value = 13

// N=C(N)c1cccc(/C=C/CN(c2ccc(OC3CCN(C4=NCCC4)CC3)cc2)S(=O)(=O)CC(=O)O)c1 [Example 60, dihydrochloride] : IC50 value = 14

// N=C(N)c1cccc(/C=C/CN(c2ccc(OC3CCN(C(=N)c4ccccc4)CC3)c(Cl)c2)S(=O)(=O)CC(=O)O)c1 [Example 52, dihydrochloride] : IC50 value = 7.8
